Quick list: IC50 per entry.
# assayTarget: BRD4 (Homo sapiens)
# experiment: BRD4 AlphaScreen
# Format: binding
# Design: […]; His tag (inferred from capture on Ni-coated acceptor beads)
# runConditions: read-out: IC50 (nM) BRD4

{"compound": "Cc1c(CC#N)sc2c1C(c1ccc(Cl)cc1)=N[C@@H](CC(=O)NCCCCNC(=O)COc1cccc3c1C(=O)N(C1CCC(=O)NC1=O)C3=O)c1nnc(C)n1-2 (stereo partly drawn)", "IC50, nM": 212}
{"compound": "CC[C@@H]1C(=O)N(C)c2cnc(Nc3ccc(C(=O)NCCCOCCOCCOCCCNC(=O)COc4cccc5c4C(=O)N(C4CCC(=O)NC4=O)C5=O)cc3OC)nc2N1C1CCCC1 (stereo partly drawn)", "IC50, nM": 83}
{"compound": "Cc1sc2c(c1C)C(c1ccc(Cl)cc1)=N[C@@H](CC(=O)NCCCN1CCN(C(=O)CCCCCNC(=O)COc3cccc4c3C(=O)N(C3CCC(=O)NC3=O)C4=O)CC1)c1nnc(C)n1-2 (stereo partly drawn)", "IC50, nM": 11}
{"compound": "Cc1noc(C)c1-c1ccc(-c2nc3cnccn3c2NCC(=O)NCCCOCCOCCOCCCNC(=O)COc2cccc3c2C(=O)N(C2CCC(=O)NC2=O)C3=O)cc1 (stereo not drawn)", "IC50, nM": 8830}
{"compound": "Cc1noc(C)c1-c1ccc(-c2nc3cnccn3c2NCC(=O)NCCCCNC(=O)COc2cccc3c2C(=O)N(C2CCC(=O)NC2=O)C3=O)cc1 (stereo not drawn)", "IC50, nM": 6930}
{"compound": "Cc1cnc(Nc2ccc(N3CCN(C(=O)CCC(=O)NCCCCNC(=O)COc4cccc5c4C(=O)N(C4CCC(=O)NC4=O)C5=O)CC3)cc2)nc1Nc1cccc(S(=O)(=O)NC(C)(C)C)c1 (stereo not drawn)", "IC50, nM": 3300}
{"compound": "COc1cc(C(=O)NCCCCNC(=O)COc2cccc3c2C(=O)N(C2CCC(=O)NC2=O)C3=O)ccc1Nc1ncc2c(n1)N(C)c1ccccc1C(=O)N2C (stereo not drawn)", "IC50, nM": 958}
{"compound": "Cc1cnc(Nc2ccc(N3CCN(C(=O)CCC(=O)NCCCCCCCCNC(=O)COc4cccc5c4C(=O)N(C4CCC(=O)NC4=O)C5=O)CC3)cc2)nc1Nc1cccc(S(=O)(=O)NC(C)(C)C)c1 (stereo not drawn)", "IC50, nM": 4990}
{"compound": "Cc1cnc(Nc2ccc(N3CCN(C(=O)CCC(=O)NCCCOCCOCCOCCCNC(=O)COc4cccc5c4C(=O)N(C4CCC(=O)NC4=O)C5=O)CC3)cc2)nc1Nc1cccc(S(=O)(=O)NC(C)(C)C)c1 (stereo not drawn)", "IC50, nM": 1540}

###

# assayTarget: BRD4 adjoined to nanoluciferase (Nluc) (Homo sapiens, UniProt O60885+Q96SW2)
# Construct: expressed in transfected cells
# experiment: BRD4 Dual Luciferase Assay
# Type: cell-based
# runConditions: read-out: BRD4 max degradation(%) Dual Luciferase

{"compound": "COC(=O)C[C@@H]1N=C(c2ccc(Cl)cc2)c2c(sc(C)c2C(=O)NCCCCNC(=O)COc2cccc3c2C(=O)N(C2CCC(=O)NC2=O)C3=O)-n2c(C)nnc21 (stereo partly drawn)", "qualifier": "=", "Dmax, %": 42}
{"compound": "Cc1cnc(Nc2ccc(N3CCN(C(=O)CCC(=O)NCCCCNC(=O)COc4cccc5c4C(=O)N(C4CCC(=O)NC4=O)C5=O)CC3)cc2)nc1Nc1cccc(S(=O)(=O)NC(C)(C)C)c1 (stereo not drawn)", "qualifier": "=", "Dmax, %": 50}
{"compound": "Cc1cnc(Nc2ccc(N3CCN(C(=O)CCC(=O)NCCCCCCCCNC(=O)COc4cccc5c4C(=O)N(C4CCC(=O)NC4=O)C5=O)CC3)cc2)nc1Nc1cccc(S(=O)(=O)NC(C)(C)C)c1 (stereo not drawn)", "qualifier": "<", "Dmax, %": 10}
{"compound": "Cc1sc2c(c1C)C(c1ccc(Cl)cc1)=N[C@@H](CC(=O)NCCCN1CCN(C(=O)CCCCCNC(=O)COc3cccc4c3C(=O)N(C3CCC(=O)NC3=O)C4=O)CC1)c1nnc(C)n1-2 (stereo partly drawn)", "qualifier": "=", "Dmax, %": 37}
{"compound": "Cc1sc2c(c1C)C(c1ccc(Cl)cc1)=N[C@@H](CC(=O)NCCCOCCOCCOCCCNC(=O)COc1cccc3c1C(=O)N(C1CCC(=O)NC1=O)C3=O)c1nnc(C)n1-2 (stereo partly drawn)", "qualifier": "=", "Dmax, %": 25}
{"compound": "Cc1sc2c(c1C)C(c1ccc(Cl)cc1)=N[C@@H](CC(=O)NCCCCCCNC(=O)COc1cccc3c1C(=O)N(C1CCC(=O)NC1=O)C3=O)c1nnc(C)n1-2 (stereo partly drawn)", "qualifier": "=", "Dmax, %": 53}
{"compound": "Cc1sc2c(c1C)C(c1ccc(Cl)cc1)=N[C@@H](CC(=O)NCCCCCCC(=O)Nc1cccc3c1CN(C1CCC(=O)NC1=O)C3=O)c1nnc(C)n1-2 (stereo partly drawn)", "qualifier": "=", "Dmax, %": 13}
{"compound": "Cc1c(C(=O)NCCCCNC(=O)COc2cccc3c2C(=O)N(C2CCC(=O)NC2=O)C3=O)sc2c1C(c1ccc(Cl)cc1)=N[C@@H](CC(=O)NCCCN1CCN(C)CC1)c1nnc(C)n1-2 (stereo partly drawn)", "qualifier": "=", "Dmax, %": 79}
{"compound": "CC[C@@H]1C(=O)N(C)c2cnc(Nc3ccc(C(=O)NCCCCCCNC(=O)COc4cccc5c4C(=O)N(C4CCC(=O)NC4=O)C5=O)cc3OC)nc2N1C1CCCC1 (stereo partly drawn)", "qualifier": "=", "Dmax, %": 54}

###

# Tested on: MOLT4
# experiment: Cell viability, ATPlite 48 hours, MOLT4
# Assay type: cell-based
# runConditions: Homo sapiens, MOLT-4; MOLT4 cells
Cut-off 2000 nM on IC50: below means criterion met, at or above means criterion not met.

{"compound": "CC[C@@H]1C(=O)N(C)c2cnc(Nc3ccc(C(=O)NCCCOCCOCCOCCCNC(=O)COc4cccc5c4C(=O)N(C4CCC(=O)NC4=O)C5=O)cc3OC)nc2N1C1CCCC1 (some centres unmarked)", "qualitativeLabel": "criterion met"}
{"compound": "Cc1sc2c(c1C)C(c1ccc(C#N)cc1)=N[C@@H](CC(=O)NCCCCNC(=O)COc1cccc3c1C(=O)N(C1CCC(=O)NC1=O)C3=O)c1nnc(C)n1-2 (some centres unmarked)", "qualitativeLabel": "criterion not met"}
{"compound": "Cc1sc2c(c1C)C(c1ccc(Cl)cc1)=N[C@@H](CC(=O)NCCCCCCNC(=O)c1ccc3c(c1)C(=O)N(C1CCC(=O)NC1=O)C3=O)c1nnc(C)n1-2 (some centres unmarked)", "qualitativeLabel": "criterion not met"}
{"compound": "Cc1sc2c(c1C)C(c1ccc(Cl)cc1)=N[C@@H](CC(=O)NCCCCCCCCNC(=O)COc1cccc3c1C(=O)N(C1CCC(=O)NC1=O)C3=O)c1nnc(C)n1-2 (some centres unmarked)", "qualitativeLabel": "criterion met"}
{"compound": "CC[C@@H]1C(=O)N(C)c2cnc(Nc3ccc(C(=O)NCCCCNC(=O)COc4cccc5c4C(=O)N(C4CCC(=O)NC4=O)C5=O)cc3OC)nc2N1C1CCCC1 (some centres unmarked)", "qualitativeLabel": "criterion met"}
{"compound": "CC[C@@H]1C(=O)N(C)c2cnc(Nc3ccc(C(=O)NCCCCCCNC(=O)COc4cccc5c4C(=O)N(C4CCC(=O)NC4=O)C5=O)cc3OC)nc2N1C1CCCC1 (some centres unmarked)", "qualitativeLabel": "criterion met"}
{"compound": "Cc1sc2c(c1C)C(c1ccc(Cl)cc1)=N[C@@H](CC(=O)NCCCN1CCN(C(=O)CCCCCNC(=O)COc3cccc4c3C(=O)N(C3CCC(=O)NC3=O)C4=O)CC1)c1nnc(C)n1-2 (some centres unmarked)", "qualitativeLabel": "criterion met"}
{"compound": "CC[C@@H]1C(=O)N(C)c2cnc(Nc3ccc(C(=O)NCCCCCCCCNC(=O)COc4cccc5c4C(=O)N(C4CCC(=O)NC4=O)C5=O)cc3OC)nc2N1C1CCCC1 (some centres unmarked)", "qualitativeLabel": "criterion met"}

###

# Tested on: NCI-H460
# experiment: cells
# runConditions: Homo sapiens, NCI-H460, 72 h, read-out: IC50 (nM) NCI-H460
measuredEndpoint: IC50 (nM)

{"compound": "Cc1sc2c(c1C)C(c1ccc(Cl)cc1)=N[C@@H](CC(=O)NCCCCCCCCNC(=O)COc1cccc3c1C(=O)N(C1CCC(=O)NC1=O)C3=O)c1nnc(C)n1-2 (stereo partly shown)", "experimentalValue": 438}

###

Recorded Dmax for the following molecules
# assayTarget: BRD4 adjoined to nanoluciferase (Nluc) (Homo sapiens, UniProt O60885+Q96SW2)
# Construct: expressed in transfected cells
# experiment: BRD4 Dual Luciferase Assay;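 note: transduced reporter cells exposed to compound for 4 h, then Nluc and Fluc luminescence read, each normalized to DMSO controls and expressed as Nluc/Fluc ratio per well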
# Format: cell-based
# runConditions: 4 hours; read-out: max degradation (dual luc)

{"molecule": "Cc1sc2c(c1C)C(c1ccc(Cl)cc1)=N[C@@H](CC(=O)NCCCCCCNC(=O)COc1cccc3c1C(=O)N(C1CCC(=O)NC1=O)C3=O)c1nnc(C)n1-2 (some centres unmarked)", "Dmax": "53%"}
{"molecule": "Cc1sc2c(c1C)C(c1ccc(Cl)cc1)=N[C@@H](CC(=O)NCCCN1CCN(C(=O)CCCCCNC(=O)COc3cccc4c3C(=O)N(C3CCC(=O)NC3=O)C4=O)CC1)c1nnc(C)n1-2 (some centres unmarked)", "Dmax": "36.5%"}
{"molecule": "Cc1sc2c(c1C)C(c1ccc(Cl)cc1)=N[C@@H](CC(=O)NCCCCCCC(=O)Nc1cccc3c1CN(C1CCC(=O)NC1=O)C3=O)c1nnc(C)n1-2 (some centres unmarked)", "Dmax": "13%"}
{"molecule": "Cc1sc2c(c1C)C(c1ccc(Cl)cc1)=N[C@@H](CC(=O)NCCCOCCOCCOCCCNC(=O)COc1cccc3c1C(=O)N(C1CCC(=O)NC1=O)C3=O)c1nnc(C)n1-2 (some centres unmarked)", "Dmax": "24.8%"}
{"molecule": "Cc1sc2c(c1C)C(c1ccc(Cl)cc1)=N[C@@H](CC(=O)NCCNC(=O)COc1cccc3c1C(=O)N(C1CCC(=O)NC1=O)C3=O)c1nnc(C)n1-2 (some centres unmarked)", "Dmax": "12.7%"}
{"molecule": "Cc1cnc(Nc2ccc(N3CCN(C(=O)CCC(=O)NCCCCNC(=O)COc4cccc5c4C(=O)N(C4CCC(=O)NC4=O)C5=O)CC3)cc2)nc1Nc1cccc(S(=O)(=O)NC(C)(C)C)c1 (centres unmarked)", "Dmax": "50%"}
{"molecule": "CC[C@@H]1C(=O)N(C)c2cnc(Nc3ccc(C(=O)NCCCCCCNC(=O)COc4cccc5c4C(=O)N(C4CCC(=O)NC4=O)C5=O)cc3OC)nc2N1C1CCCC1 (some centres unmarked)", "Dmax": "54.1%"}
{"molecule": "Cc1cnc(Nc2ccc(N3CCN(C(=O)CCC(=O)NCCCOCCOCCOCCCNC(=O)COc4cccc5c4C(=O)N(C4CCC(=O)NC4=O)C5=O)CC3)cc2)nc1Nc1cccc(S(=O)(=O)NC(C)(C)C)c1 (centres unmarked)", "Dmax": "24%"}
{"molecule": "CC[C@@H]1C(=O)N(C)c2cnc(Nc3ccc(C(=O)NCCCOCCOCCOCCCNC(=O)COc4cccc5c4C(=O)N(C4CCC(=O)NC4=O)C5=O)cc3OC)nc2N1C1CCCC1 (some centres unmarked)", "Dmax": "25.3%"}
{"molecule": "COC(=O)C[C@@H]1N=C(c2ccc(Cl)cc2)c2c(sc(C)c2C(=O)NCCCCCCCCNC(=O)COc2cccc3c2C(=O)N(C2CCC(=O)NC2=O)C3=O)-n2c(C)nnc21 (some centres unmarked)", "Dmax": "39.9%"}
{"molecule": "Cc1sc2c(c1C)C(c1ccc(Cl)cc1)=N[C@@H](CC(=O)NCCCCNC(=O)CNc1cccc3c1CN(C1CCC(=O)NC1=O)C3=O)c1nnc(C)n1-2 (some centres unmarked)", "Dmax": "11.7%"}
